molecular target: BdPyK I (Babesia duncani, UniProt A0AAD9PKI2); experiment: BdPyK I enzyme inhibition, indirect coupled lactate dehydrogenase assay (NADH at 340 nm); type: biochemical
Sequence (A0AAD9PKI2 entry or part of it): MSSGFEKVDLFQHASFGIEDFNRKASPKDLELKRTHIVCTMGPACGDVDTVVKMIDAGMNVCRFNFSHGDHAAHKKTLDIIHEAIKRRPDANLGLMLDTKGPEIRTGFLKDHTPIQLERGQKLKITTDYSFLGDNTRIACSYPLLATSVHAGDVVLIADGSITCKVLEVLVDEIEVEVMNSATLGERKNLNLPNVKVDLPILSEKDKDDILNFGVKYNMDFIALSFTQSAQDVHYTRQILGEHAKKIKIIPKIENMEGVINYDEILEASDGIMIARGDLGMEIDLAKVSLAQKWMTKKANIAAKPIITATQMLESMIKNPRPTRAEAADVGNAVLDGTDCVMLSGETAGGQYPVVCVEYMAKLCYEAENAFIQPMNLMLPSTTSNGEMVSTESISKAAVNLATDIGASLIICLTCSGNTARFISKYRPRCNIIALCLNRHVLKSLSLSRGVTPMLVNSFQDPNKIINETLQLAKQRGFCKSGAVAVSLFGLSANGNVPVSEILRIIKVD
property: IC50 (µM)
Write the value in µM as a bare number.

Input: Recorded IC50 of `O=c1cc(-c2ccc(O)cc2)oc2cc(O)cc(O)c12` , please.
Output: 7.49

###

In this section we review reported IC50 values for a set of compounds.
target: BdPyK I (Babesia duncani, UniProt A0AAD9PKI2); assay: BdPyK I enzyme inhibition, indirect coupled lactate dehydrogenase assay (NADH at 340 nm); assay type: biochemical; details: 3 mM PEP and 3 mM ADP; compound 0–500 μM; read-out: IC50 PyK I

Guide cases for IC50, answers given:
INSERT INTO measurements (compound, property, test_result) VALUES
  ('CN(CCOc1ccc(CC2SC(=O)NC2=O)cc1)c1ccccn1 (stereo not shown)', 'IC50', '7.36 µM'),
  ('CCc1ccc(CCOc2ccc(CC3SC(=O)NC3=O)cc2)nc1 (stereo not shown)', 'IC50', '27.5 µM'),
  ('CC(C)=CC[C@@H](O)C1=CC(=O)c2c(O)ccc(O)c2C1=O', 'IC50', '16.5 µM');

Would you kindly look at the next entry?
Input: Recorded IC50 of `CC1=C(CSC(=S)N2CCCCC2)C(=O)c2ccccc2C1=O` , please.
Output: 10.9 µM

###

tested on: B. duncani; assay: In vitro growth inhibition assay of Babesia duncani (SYBR Green, 72 h); format: cell-based; details: Babesia duncani; 72 h incubation, SYBR Green; read-out: IC50 of B. duncani growth inhibition (Figure 10)
property: IC50 (µM)
Write the value in µM as a bare number.

INSERT INTO results (compound, tgt, test_result) VALUES
  ('CCc1ccc(CCOc2ccc(CC3SC(=O)NC3=O)cc2)nc1 (centres unmarked)', 'B. duncani', 15.4);

Input: Recorded IC50 of CN(CCOc1ccc(CC2SC(=O)NC2=O)cc1)c1ccccn1 (centres unmarked) , please.
Output: 20.9
